Tested on: DMS 114 small cell lung
Test: NCI tumour cell line growth inhibition, 48 h
Listing of entries alongside the reported TGI.

Compound | TGI
COc1cc(Br)c(C=Nc2cccc3cc(OC)c(OC)cc23)cc1OC | 50.4 µM
C=C(C)C(O)CCC1(C)C=Cc2c(c(C)cc3c2[nH]c2ccccc23)O1 (stereo unspecified) | 25 µM
O=C(NCCCCNc1cccccc1=O)OCc1ccccc1 | > 100 µM
Cc1c2ccncc2c(C)c2c1[nH]c1ccc(OC(C)C)cc12 | 3.24 µM
O=C1N(C2CCCCC2)CC12CCCCC2 | > 100 µM
C/C(=N\NC(=S)N1CC2CCC(CC2)C1)c1nccs1 | 0.218 µM

---

Tested on: SR leukemia
Assay: NCI tumour cell line growth inhibition, 48 h; in the data active means GI50 below about 0.43 µM; inactive means the rest
Classes used: T = active, F = inactive

Compound | Cat
CCN(Cc1cc(Nc2nc(C)cn3c(-c4cn[nH]c4)cnc23)sn1)C(C)(C)CO | T
C=CCN=c1sc2c(n1NC(=O)c1cc3ccc1CCc1ccc(cc1)CC3)C(=O)c1ccccc1C2=O | F
O=C(CCCCCCNC(=O)c1cnc(N(c2ccccc2)c2ccccc2)nc1)NO | F
N=C1C(c2nc3ccccc3s2)=C(O)CN1c1ccc(F)c(Cl)c1 | F
O=c1[nH]nnc2c1ncn2C1OC(CO)C(O)C1O (stereo unspecified) | F
CCOC(=O)Nc1ccc2c(c1)/C(=N\NC(N)=S)c1ccccc1-2 | F

---

Listing of entries alongside the reported TGI.
Tested on: SK-MEL-2 melanoma
Assay: NCI tumour cell line growth inhibition, 48 h

Compound | Limit qualifier | TGI [µM]
CN(O)C(=O)SCC(NC(=O)CCC(N)C(=O)O)C(=O)NCC(=O)O (centres undefined) | > | 2000
C/C(=C(/C)c1ccc(O)cc1)c1ccc(O)cc1 | > | 100
COc1ccc2nc3cc(Cl)ccc3c(NCCNC(=O)Cn3c(=O)n(C)c(=O)c4c3nc3c(c(=O)n(C)c(=O)n3C)[n+]4[O-])c2c1 | > | 100
CC1=C(C(=O)Nc2cc(=O)n(C)c(=O)n2C)C(c2ccco2)C(C(=O)Nc2cc(=O)n(C)c(=O)n2C)=C(C)N1 | > | 100
COc1cc(C(O)CCBr)c(OC)cc1C (centres undefined) | = | 68.2
COC(=O)CC1C[C@H](C#N)N(C(=O)c2ccccc2)C[C@@H]1CC[N+](=O)[O-] (some centres undefined) | = | 0.834
CN(CCNC(=O)c1nn(-c2ccccc2)c2c1Cc1ccccc1-2)CCNC(=O)c1nn(-c2ccccc2)c2c1Cc1ccccc1-2 | = | 3.38
Cc1cccc(/C=C/c2c(C(=O)/C=C/c3ccccc3)c(C)nc3ccccc23)c1 | = | 3.63
O=C(Nc1ccc([As](=O)(O)O)cc1)Nc1cccc(Cl)c1Cl | > | 100

---

Tested on: U251 CNS
Assay: NCI tumour cell line growth inhibition, 48 h
Listing of entries alongside the reported TGI.
Parameter measured: TGI

Compound | System tested | Value measured
C[C@@]1(C(=O)O)CCC[C@]2(C)C1CC[C@@]13CC(=O)[C@@](CO)(CC[C@]12O)C3 (stereo not given in full) | U251 CNS | > 100 µM
O=C1C(N2CCN(c3ccccn3)CC2)=C(Cl)C(=O)c2ncccc21 | U251 CNS | > 10 µM
Cc1cccc(/C=C/c2c(C(=O)/C=C/c3ccccc3)c(C)nc3ccccc23)c1 | U251 CNS | 2.85 µM
ClCc1cccc2c(CCl)cccc12 | U251 CNS | 11.6 µM
CCOC(=O)C12CCCC1(O)N(NC(=O)OC(C)(C)C)C(C)=C2C(=O)OC (stereo not given) | U251 CNS | > 100 µM
CC[C@H](CCCC[C@H]1CC[C@@H]2CC(=O)C[C@H]12)OC | U251 CNS | > 100 µM
C=C1C(=O)O[C@@H]2C[C@@H](C)[C@@H]3C=CC(=O)[C@@]3(C)[C@@H](O)[C@H]12 | U251 CNS | 2.99 µM
COc1ccc(C23C(=O)c4ccccc4N2O[C@H]2C(=O)N(c4ccccc4)C(=O)[C@H]23)cc1 (stereo not given in full) | U251 CNS | > 100 µM
CCCCCCCCCCCc1nnc(N)o1 | U251 CNS | > 100 µM
CC1=C(c2ccccc2)C(c2ccccc2)=C(c2ccccc2)C2(c3ccccc3)C(=O)C(C)CN12 (stereo not given) | U251 CNS | > 100 µM
[N-]=[N+]=NC(CCl)c1cn([C@H]2C[C@H](O)[C@@H](CO)O2)c(=O)[nH]c1=O (stereo not given in full) | U251 CNS | > 100 µM
O.O.[NH-]C1(C(=O)O)CCCC1.[NH-]C1(C(=O)O)CCCC1.[Ni+2] | U251 CNS | > 100 µM
C/C(=N\NC(=S)N1CC2CCC(CC2)C1)c1nccs1 | U251 CNS | 6.43 µM
Cc1ccc(Cc2n[nH]c(=O)n2Nc2ccccc2)cc1 | U251 CNS | > 100 µM
OC1c2ccccc2CC12Cc1ccccc1C2 (stereo not given) | U251 CNS | > 100 µM
COc1cc(C(=O)/C=C/c2ccc(OCC#N)cc2)cc(OC)c1OC | U251 CNS | 33.4 µM
CC(=O)OC/C=C/[C@H](O[Si](C)(C)C(C)(C)C)[C@@H](O)/C=C/COC(C)=O | U251 CNS | > 100 µM
C=C1C(=O)O[C@H]2[C@H]1CC/C(COC(=O)CSCSCC(=O)OC/C1=C/CC[C@@]3(C)O[C@H]3[C@H]3OC(=O)C(=C)[C@@H]3CC1)=C\CC[C@@]1(C)O[C@@H]21 | U251 CNS | 3.85 µM
CN(C)c1ccc(/C=C/C(=O)CC(=O)/C=C/c2ccc(N(C)C)cc2)cc1 | U251 CNS | > 100 µM
Cc1cc2c(cc1C)OC(=O)CC2 | U251 CNS | > 100 µM
